# TARGET_OF_ASSAY: T1, recombinant human IL4Rα-his protein (human, UniProt P24394 26-232, biotinylated in the capture ELISA and the benchmark blocking ELISA)
# T1 construct: also called biotinylated human IL4Rα-his protein
# EXPERIMENT_NOTES: SPR Biacore, mAb captured, IL4Rα-his analyte
Catalogue of Dissociation (%) values

BINDER	Dissociation (%)
huC2C1A1A1-V7 (antibody, human IgG4 S228P, kappa, V domains shown, Humanized IgG4/kappa) VH: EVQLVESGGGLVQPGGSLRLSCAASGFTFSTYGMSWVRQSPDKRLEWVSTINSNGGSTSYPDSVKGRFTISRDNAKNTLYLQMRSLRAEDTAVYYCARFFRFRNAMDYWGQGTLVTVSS VL: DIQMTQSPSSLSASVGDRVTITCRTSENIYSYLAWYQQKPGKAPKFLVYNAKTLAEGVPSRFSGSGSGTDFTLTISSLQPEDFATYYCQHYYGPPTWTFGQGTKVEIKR	-0.66%

Turning to the following binder.
Q) Param item = huC2C1A1A1-V13 (antibody, human IgG4 S228P, kappa, V domains shown, Humanized IgG4/kappa) VH: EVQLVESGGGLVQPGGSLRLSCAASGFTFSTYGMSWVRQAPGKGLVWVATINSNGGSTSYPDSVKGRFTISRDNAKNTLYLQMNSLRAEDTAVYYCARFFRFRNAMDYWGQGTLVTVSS VL: DIQMTQSPSSLSASVGDRVTITCRTSENIYSYLAWYQQKPGKAPKLLIYNAKTLAEGVPSRFSGSGSGTDFTLTISSLQPEDFATYYCQHYYGPPTWTFGQGTKVEIKR ; retrieve measured Dissociation (%).
A) 0.82%
